These measurements were taken from patent US20160264649A1.

- study target: HIV-1 Env of pseudovirus isolate MGRM-G-019 (subtype G) (HIV-1)
- test: cell-based or functional assay
What IC50 was measured for each of the following?
Numbers only, in µg/mL.

Items follow; give IC50 for each.
1. PGT-123 (antibody, V domains shown) VH: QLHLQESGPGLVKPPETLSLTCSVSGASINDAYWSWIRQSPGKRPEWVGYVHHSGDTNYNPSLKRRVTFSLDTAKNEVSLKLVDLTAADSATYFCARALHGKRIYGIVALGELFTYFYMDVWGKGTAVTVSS VL: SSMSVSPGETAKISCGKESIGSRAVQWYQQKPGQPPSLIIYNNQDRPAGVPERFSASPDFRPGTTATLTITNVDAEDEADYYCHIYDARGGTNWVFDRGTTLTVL
2. PGT-135 (antibody, V domains shown) VH: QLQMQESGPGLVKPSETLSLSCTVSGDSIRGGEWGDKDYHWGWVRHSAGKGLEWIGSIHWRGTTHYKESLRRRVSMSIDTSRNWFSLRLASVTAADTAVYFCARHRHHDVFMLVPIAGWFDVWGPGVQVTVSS VL: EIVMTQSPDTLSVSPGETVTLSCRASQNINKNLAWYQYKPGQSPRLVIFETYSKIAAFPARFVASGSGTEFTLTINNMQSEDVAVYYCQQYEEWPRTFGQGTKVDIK
3. PGT-127 (antibody, V domains shown) VH: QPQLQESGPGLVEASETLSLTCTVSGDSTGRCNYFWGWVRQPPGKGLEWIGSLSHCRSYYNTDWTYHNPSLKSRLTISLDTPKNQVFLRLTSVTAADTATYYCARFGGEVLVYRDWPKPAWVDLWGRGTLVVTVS VL: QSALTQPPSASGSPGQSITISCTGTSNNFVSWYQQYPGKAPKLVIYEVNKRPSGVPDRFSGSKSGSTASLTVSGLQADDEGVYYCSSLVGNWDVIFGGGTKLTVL

Ans:
0.008
0.145
0.429
